Assay Notes: Ratio of drug level in brain to blood in Rattus norvegicus (rat) at 0.6 mmol/kg, ip after 3 hr by RP-HPLC analysis
Format: ADME, organism-based
Measure: Kp at 3 h
Form: value (number only, do not type unit).

Asked: What value of Kp at 3 h has been reported for the following compound? COc1ccc2cc([C@H](C)C(=O)N3CC(O)CC3C(=O)NCCS)ccc2c1 (stereo partly specified)
Given back: 0.004

----------
The entries below are paired with their reported mortality at 96 h.
Assay Notes: Toxicity in Rattus norvegicus (rat) assessed as mortality at 84 umol/kg, sc qd for 4 days
Format: organism-based
Protocol Conditions: in vivo
Field: numeric (%). Do not append units.

Compound: COc1ccc2c(c1)c(CC(=O)O)c(C)n2C(=O)c1ccc(Cl)cc1 [INDOMETHACIN]
Unit Info: %
mortality at 96 h: 50

# input for lookup
Asked: What value of mortality at 96 h has been reported for the following compound? COc1ccc2c(c1)c(CC(=O)N1CCCC1C(=O)Oc1ccc(C)cc1OC)c(C)n2C(=O)c1ccc(Cl)cc1 (configuration not stated)
Given back: 0

----------
System: Rattus norvegicus
Assay Notes: Anti-inflammatory activity in Rattus norvegicus Fischer-344 (rat) assessed as inhibition of carrageenan-induced paw oedema at 0.30 mmol/kg, ip administered 5 min before […] measured after 3 hr relative to control
Type: functional
Protocol Conditions: Fischer-344, ip
Measure: inhibition in vivo at 300 µmol/kg (%)
Field: numeric (%). Do not append units.

Some compounds with known inhibition in vivo at 300 µmol/kg results, for comparison:
Compound: CC(C(=O)NCCS)c1cccc(C(=O)c2ccccc2)c1 (stereo not drawn)
Recorded Result: 39

Compound: COc1ccc2cc(C(C)C(=O)Oc3ccc(C)cc3OC)ccc2c1 (stereo not drawn)
Recorded Result: 40

# input for lookup
Asked: What value of inhibition in vivo at 300 µmol/kg has been reported for the following compound? CC(C(=O)OCCCc1cccnc1)c1cccc(C(=O)c2ccccc2)c1 (stereo not drawn)
Given back: 61
